test-name: soluble on expression in E. coli; label from the status in PepcDB or PDB records
reported-endpoint: soluble on expression in E. coli

Look over these answered cases.
monomer-sequence: MHENKYLTIYHDLISRIRRGEWKAYDKLPSEHELAARYETSRETIRKALHLLSEHGYIQKMKGKGSIVLDVGKYDFPVSGLVSFKELAQTMKQPVRTIVHELAIIKPDRELRQHLRASSKDEVWKVVRVREIGGERIILDKDFFLKKHVPLLTKEICEDSIYEYLETKLHLPISFAKKEISVDEATDEDRRYLDLHGDDRVVVVKNYVYLSDAALFQYTESRHRLDKFRFVDFARRK
readout-value: not soluble
--
monomer-sequence: MGSDKIHHHHHHMSRIENQFTVQFWGVRGSIPSPGPHTVRYGGNTPCISMQAGDKRLVFDAGTGLHVLGQSWLRQMPLEGHIFFTHSHWDHMQGFPFFTPGFVKGNDFHIYGAIAPDGSTIEQRLNDQMLHPNFPVPLQIMQANLKFYDIRPGQPIHIDDVTVETAPLNHPGEAVGYRVNWRGGAVAYITDTEHFPDRLDDNVLWLARNADILVYDSTYTDEEYHSPKTPKIGWGHSTWQEAVKVAQAANVKTLVIYHHDPAHNDDFLDCVGQQASEKFPGAIMAREGMVLQIPTSVALSESFPVSKFST
readout-value: not soluble
--
monomer-sequence: MANWQCVKQCGACCNLDPAERPEIEDYLTPDELEIYFSMVGEGGWCVNFDHTTRECRIYSTRPRFCRVEPDIFQDMYGIESEELNDFAIECCRQQIEGVYGDRSLEMLRFDKAVGILEHHHHHH
readout-value: soluble
--
monomer-sequence: MADWVTGKVTKVQNWTDALFSLTVHAPVLPFTAGQFTKLGLEIDGERVQRAYSYVNSPDNPDLEFYLVTVPDGKLSPRLAALKPGDEVQVVSEAAGFFVLDEVPHCETLWMLATGTAIGPYLSILRLGKDLDRFKNLVLVHAARYAADLSYLPLMQELEKRYEGKLRIQTVVSRETAAGSLTGRIPALIESGELESTIGLPMNKETSHVMLCGNPQMVRDTQQLLKETRQMTKHLRRRPGHMTAEHYW
readout-value: soluble
--
monomer-sequence: MGSDKIHHHHHHMTIMILREIIDELSYQLKQRRIINVCVSPAYTSVMLDDQSIGISHTITDGEIEGAGEIIGKNAYDVVINNLDSNLQRSLSLAILNALGSMIDFTQGDPINLYSGGKLCVFGFSPQLSYSNFDSVIVYDFMSTENKKVGNTEIKPYSSLSREVCSTALIFASSIVNNTIDRIISQISANHLILTGISSVDAPITLKNHGFEVLGKLFPVEKYRVFRTICEGGSNKLLSKYIMRYFKKL
readout-value: not soluble

For "MGSDKIHHHHHHMDNKELKAFCNLIGLNCVGVAGVDKYDNLEKILKDRQQKGYLTGMEEPIIENRINPRHIMKDANSIIVCAFPYHINRQEKNKNSNLSKYCHGKDYHIVVKDFLQQICDYISKTVTDFKYKLFADNGPLVDRYLAYLSGIGYFGINNNIITDEYGSYVFIGYIVNNYKFEEDKPLEKSCFKCGKCVKYCPGNAILGNYDMNPKKCLSYITQKKGDLSEKEKVVLKNGKKVFGCDICQEVCPHNVEIPTTHILEFKENIIDYLDYDEIQNISNKEFKRRYGDRAFSWRGRNIIKRNMEIILDKYDD" , write its soluble on expression in E. coli.
not soluble

FYI, the data here is from the DeepSol protein solubility set.
